assay: qHTS RealTime-Glo MT Cell Viability Assay in HepG2 cells - 40 hour (AID 1224870); details: RealTime-Glo luminescence; series mostly up to 76.8 µM; further: nearly all actives have a fitted effect of over 50% in size
Results filed as inconclusive are left out. The source made the active and inactive calls. The call rests on the fitted dose curve; in most records, active means well fitted cell-killing curve with a large enough effect in the repeat runs; inconclusive means weak or mixed curves, or effect the other way; inactive means flat fitted curve, though single readings scatter.
Outcomes you can answer with include only these: active, inactive

Some entries whose results are on file:
>>> label_class("OCCCCl")
"inactive"
>>> label_class("CC(C)OC(=O)c1cc(C(=O)OC(C)C)cc([N+](=O)[O-])c1")
"inactive"
>>> label_class("CN(C)CCN1CCOCC1")
"inactive"
>>> label_class("CCc1ccc(O)c(C(C)(C)C)c1")
"inactive"

[Q] # fetch the recorded call for CCCC(O)C(O)CO (configuration not stated) here
[A] inactive

[Q] # fetch the recorded call for CCCCCCC(C)OC(=O)COc1nc(F)c(Cl)c(N)c1Cl (configuration not stated) here
[A] inactive

[Q] # fetch the recorded call for CCOC(/C=C(\C)CCC=C(C)C)OCC here
[A] inactive

[Q] # fetch the recorded call for CC1CCCNC1 (configuration not stated) here
[A] inactive

[Q] # fetch the recorded call for CCN=C1C=CC(=C(c2ccc(N(CC)CC)cc2)c2ccc(N(CC)CC)cc2)c2ccccc21 here
[A] active

[Q] # fetch the recorded call for CCCC(C)CCC(C)=O (configuration not stated) here
[A] inactive

[Q] # fetch the recorded call for O=S(=O)(O)CCCN1CCOCC1 here
[A] inactive
